Reported values of percent inhibition of Factor 7 mRNA, relative to untreated control cells for individual entries
- System: human Factor 7 mRNA
- assay.procedure: Dose-dependent antisense inhibition of human Factor 7 in HepB3 cells, lipofectin
- Format: cell-based
- test.settings: 25 nM, HepB3 cells, approx. 16 hours (Table 14)
Strand notation (5' to 3'): a small letter for the sugar, then the base; units joined by * are phosphorothioate-linked, units joined directly phosphodiester-linked; [ ] holds rarer units or linkages, { } end groups; capitals alone tell only the bases. e = 2'-O-(2-methoxyethyl) (MOE); [5mC] = 5-methylcytosine; d = 2'-deoxy (DNA)
Quick note: give the figure in %, leave out the unit.

Would you please look over these solved cases?
- substance: "422140 (antisense eG*eT*eT*e[5mC]*eT*dG*d[5mC]*dA*dG*dG*dA*dG*d[5mC]*dG*dG*e[5mC]*e[5mC]*eT*eA*eA) [compound 422140]"
  result.unit: "%"
  measured.number: 64
- substance: "422217 (antisense eG*eA*eG*dT*dT*d[5mC]*dT*dG*d[5mC]*dA*dG*dG*dA*dG*d[5mC]*dG*dG*e[5mC]*e[5mC]*eT) [compound 422217]"
  result.unit: "%"
  measured.number: 63
- substance: "422292 (antisense eG*eT*dT*d[5mC]*dT*dG*d[5mC]*dA*dG*dG*dA*dG*d[5mC]*dG*dG*e[5mC]*e[5mC]*eT*eA*eA) [compound 422292]"
  result.unit: "%"
  measured.number: 63
- substance: "422086 (antisense eT*eG*e[5mC]*eA*eT*dG*dG*dT*dG*dA*dT*dG*d[5mC]*dT*dT*e[5mC]*eT*eG*eA*eA) [compound 422086]"
  result.unit: "%"
  measured.number: 65
- substance: "422177 (antisense e[5mC]*e[5mC]*e[5mC]*dG*d[5mC]*d[5mC]*dG*dG*d[5mC]*dT*d[5mC]*dT*dG*d[5mC]*dT*d[5mC]*dA*eT*e[5mC]*e[5mC]) [compound 422177]"
  result.unit: "%"
  measured.number: 64

[in] Name the recorded percent inhibition of Factor 7 mRNA, relative to untreated control cells for 422228 (antisense eT*eG*d[5mC]*dA*dT*dG*dG*dT*dG*dA*dT*dG*d[5mC]*dT*dT*e[5mC]*eT*eG*eA*eA) [compound 422228] .
[out] 60

[in] Name the recorded percent inhibition of Factor 7 mRNA, relative to untreated control cells for 422215 (antisense eG*eT*eT*d[5mC]*dT*dG*d[5mC]*dA*dG*dG*dA*dG*d[5mC]*dG*dG*d[5mC]*d[5mC]*eT*eA*eA) [compound 422215] .
[out] 65

[in] Name the recorded percent inhibition of Factor 7 mRNA, relative to untreated control cells for 422229 (antisense eA*eT*dG*d[5mC]*dA*dT*dG*dG*dT*dG*dA*dT*dG*d[5mC]*dT*eT*e[5mC]*eT*eG*eA) [compound 422229] .
[out] 72

[in] Name the recorded percent inhibition of Factor 7 mRNA, relative to untreated control cells for 422142 (antisense eG*eA*eG*eT*eT*d[5mC]*dT*dG*d[5mC]*dA*dG*dG*dA*dG*d[5mC]*eG*eG*e[5mC]*e[5mC]*eT) [compound 422142] .
[out] 66

[in] Name the recorded percent inhibition of Factor 7 mRNA, relative to untreated control cells for 422150 (antisense eG*e[5mC]*eA*dT*dG*dG*dT*dG*dA*dT*dG*d[5mC]*dT*dT*d[5mC]*dT*dG*eA*eA*eT) [compound 422150] .
[out] 59

[in] Name the recorded percent inhibition of Factor 7 mRNA, relative to untreated control cells for 422152 (antisense eA*eT*eG*d[5mC]*dA*dT*dG*dG*dT*dG*dA*dT*dG*d[5mC]*dT*dT*d[5mC]*eT*eG*eA) [compound 422152] .
[out] 67
